Source of measurements: patent US20180072770A1

test system: A/Mute swan/Germany/R901/06 H7N1
No end group written: not given here.
quantity_name: IC50
Please state the value followed by its unit.

Notebook entry, A/Mute swan/Germany/R901/06 H7N1 assay: IC50 of KKKKFYGYDVFF-NH2 [SEQ ID NO:28] = ? 30 µM
